experiment: Brain penetration in rats 1 hour after intravenous treatment; type: in vivo; details: male, Han Wistar, brain; rat, one hour after intravenous administration, 1 mg/kg; read-out: average total brain level
QUANTITY NAME: concentration at 1 h

Can you share its concentration at 1 h? I mean this compound: Cc1cccc(NCC2CC3(CCN2C(=O)c2nc(C)sc2-c2ccccc2)CC3)n1 (single isomer, unassigned)
83 ng/g

====

molecular target: human OX2 receptor (Homo sapiens); assay: FLIPR measurement of intracellular calcium, antagonistic activity at OX2
Sequence (O43614 whole entry): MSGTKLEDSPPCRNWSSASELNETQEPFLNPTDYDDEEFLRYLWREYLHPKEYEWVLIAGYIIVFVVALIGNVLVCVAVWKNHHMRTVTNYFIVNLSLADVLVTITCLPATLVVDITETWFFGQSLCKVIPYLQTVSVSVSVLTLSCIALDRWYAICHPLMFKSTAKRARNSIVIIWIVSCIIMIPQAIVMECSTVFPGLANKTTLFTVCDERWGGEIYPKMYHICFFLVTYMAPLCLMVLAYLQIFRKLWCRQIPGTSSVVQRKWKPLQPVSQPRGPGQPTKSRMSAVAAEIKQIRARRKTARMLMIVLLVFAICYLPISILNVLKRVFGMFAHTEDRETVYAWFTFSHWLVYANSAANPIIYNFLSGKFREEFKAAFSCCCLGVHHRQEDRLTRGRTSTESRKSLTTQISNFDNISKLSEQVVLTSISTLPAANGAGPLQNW
Below is a list of entries, each paired with its recorded Kb value.

Can you share its Kb? I mean this compound: Cc1cccc(NCC2CC3(CCN2C(=O)c2nc(C)sc2-c2ccccc2)CC3)n1 (racemic) [Compound 1]
> 10 µM

Next:
Can you share its Kb? I mean this compound: Cc1ccc(-n2nccn2)c(C(=O)N2CC3(CC3)C[C@H]2CNc2cccc(C)n2)c1
> 10 µM

Can you share its Kb? I mean this compound: Cc1ccc(-n2nccn2)c(C(=O)N2CC3(CC3)C[C@H]2CNc2ccc(Cl)cn2)c1
> 10 µM

Can you share its Kb? I mean this compound: Cc1cc(C)nc(NC[C@@H]2CC3(CCN2C(=O)c2ccccc2-c2ccccc2)CC3)n1
0.0794 µM

Can you share its Kb? I mean this compound: O=C(c1ccccc1OCC1CC1)N1CCCCC1CNc1ccc(Cl)cn1 (centres unmarked) [comparison 4, reference compound]
0.158 µM

Can you share its Kb? I mean this compound: Cc1cccc(NCC2CCCCN2C(=O)c2ccccc2-c2ccccc2)n1 (centres unmarked) [comparison 1, reference compound]
0.0316 µM

Can you share its Kb? I mean this compound: Cc1ccnc(NC[C@@H]2CC3(CCN2C(=O)c2ccccc2-c2ccccc2)CC3)n1
> 10 µM

Can you share its Kb? I mean this compound: Cc1nc(C(=O)N2CCC3(CC3)CC2CNc2ccc(Cl)cn2)c(-c2ccccc2)s1 (single isomer, unassigned)
> 1 µM

Can you share its Kb? I mean this compound: Cc1ccc(-c2ncccn2)c(C(=O)N2CC3(CC3)C[C@H]2CNc2ccc(Cl)cn2)c1
> 10 µM

This collection of values is drawn from patent US8859608B2.
